This collection of values is drawn from ChEMBL document CHEMBL1961873.

# TESTED_SYSTEM: Proto-oncogene tyrosine-protein kinase receptor Ret (Homo sapiens) (UniProt P07949);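 note: reported figure is the mean of RET inhibition measurements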
# Sequence (P07949 whole entry): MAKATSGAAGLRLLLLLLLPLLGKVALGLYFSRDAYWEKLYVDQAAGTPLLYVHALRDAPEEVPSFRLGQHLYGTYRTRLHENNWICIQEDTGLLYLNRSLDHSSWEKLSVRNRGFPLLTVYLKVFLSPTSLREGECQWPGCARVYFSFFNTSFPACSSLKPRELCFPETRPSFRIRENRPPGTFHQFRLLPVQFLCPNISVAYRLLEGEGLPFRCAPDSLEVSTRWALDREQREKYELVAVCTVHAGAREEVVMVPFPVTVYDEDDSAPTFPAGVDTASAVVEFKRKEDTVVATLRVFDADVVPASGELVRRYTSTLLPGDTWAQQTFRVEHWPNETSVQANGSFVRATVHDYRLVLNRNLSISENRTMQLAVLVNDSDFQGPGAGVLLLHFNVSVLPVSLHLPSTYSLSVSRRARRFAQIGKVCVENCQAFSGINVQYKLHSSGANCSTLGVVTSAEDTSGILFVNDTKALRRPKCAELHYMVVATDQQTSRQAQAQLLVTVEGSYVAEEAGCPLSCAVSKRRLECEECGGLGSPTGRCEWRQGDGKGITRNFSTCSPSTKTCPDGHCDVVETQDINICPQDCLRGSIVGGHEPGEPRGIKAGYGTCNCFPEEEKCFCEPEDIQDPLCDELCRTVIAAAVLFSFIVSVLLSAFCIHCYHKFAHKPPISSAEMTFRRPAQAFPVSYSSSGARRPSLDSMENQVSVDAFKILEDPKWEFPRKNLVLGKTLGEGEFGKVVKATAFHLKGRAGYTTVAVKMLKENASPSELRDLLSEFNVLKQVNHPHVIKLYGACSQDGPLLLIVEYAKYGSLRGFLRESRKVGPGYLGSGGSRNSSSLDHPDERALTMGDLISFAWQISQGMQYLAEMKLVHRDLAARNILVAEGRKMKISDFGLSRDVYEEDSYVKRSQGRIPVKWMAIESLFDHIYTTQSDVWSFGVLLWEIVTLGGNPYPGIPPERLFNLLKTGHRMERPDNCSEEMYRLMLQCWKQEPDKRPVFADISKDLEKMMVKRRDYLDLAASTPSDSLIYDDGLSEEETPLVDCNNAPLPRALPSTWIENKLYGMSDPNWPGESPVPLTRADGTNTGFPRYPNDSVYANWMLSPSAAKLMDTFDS
# APPLIED_CONDITIONS: at 0.1 µM
Entries and their inhibition
Give the quantity in %, number only.

Field: example entries. Status: answers known.
1. CC(=O)NCc1cccc(C#Cc2cncnc2Nc2ccc(OCc3cccc(F)c3)c(Cl)c2)c1	3.99
2. CCn1c(-c2nonc2N)nc2c(C#CC(C)(C)O)ncc(OC3CCNCC3)c21	4.43
3. NS(=O)(=O)c1ccc(N/N=C2\C(=O)Nc3ccc4ncccc4c32)cc1	37.3

# input Need inhibition, item COC(=O)Nc1nc2ccc(Oc3ccc(NC(=O)Nc4cccc(Cl)c4)cc3)cc2[nH]1
# output 52.1

# input Need inhibition, item CN1CCC(n2cnc(-c3ccc(F)cc3)c2-c2ccnc(Nc3ccccc3)n2)CC1
# output 6.59
